Source: PubChem BioAssay (NCI)

test system: OVCAR-4 ovarian; experiment: NCI-60 one-dose screen, 48 h (100 = growth as untreated, 0 = no growth, -100 = all killed); conditions: 10 µM unless noted
This is part of a sample that, as a whole, favours compounds with a hit. Of some 83,000 tested, about 20% had one in any assay.
measure: growth (%)

1) O=C1c2ccccc2C(=O)c2c(N=Nc3sc(=O)[nH]c3S)cccc21 = 95.3
2) Cc1cc(C)c2c(=O)[nH]c(SCC(=O)Nc3cccc(S(=O)(=O)N(C)C)c3)nc2n1 = 105
3) Cc1nc2scc(-c3ccccc3)n2c(=O)c1CCO = 93.8
4) Clc1ccc2c(c1)NC1(CCSc3ccccc31)n1nccc1-2 (stereo unspecified) = 103
5) CC1CCN(C(=O)CSc2nc3sc4c(c3c(=O)[nH]2)CCCC4)CC1 = 108
6) Cc1oc2ncnc(Nc3ccccc3)c2c1C(=O)NCCO = 103
7) COc1cc(Cn2c(SCCC(=O)Nc3ccc(F)cc3)nc3ccccc3c2=O)cc(OC)c1OC = 85
8) Cn1cc(C=O)c2ccccc21 = 101
9) Cc1cc(C(=O)CSc2nc3ccccc3c(=O)[nH]2)c(C)n1C = 123
10) CC(=O)OC[Si](C)(C)c1ccccc1 = 103
11) O=S(=O)(NCCCNc1cc(-c2cn(-c3ccccc3)nc2-c2cccc(O)c2)ccn1)c1ccc(Cl)cc1 = 34.7

---

// growth lookup, one value per entry
test system: CAKI-1 renal; assay: NCI-60 one-dose screen, 48 h (100 = growth as untreated, 0 = no growth, -100 = all killed); settings: 10 µM unless noted
This is part of a sample that, as a whole, favours compounds with a hit. Of some 83,000 tested, about 20% had one in any assay. Activity calls are given as the source filed them. The calls were made as follows: active = growth percent below 10; inactive = the rest.
measure: growth

1) Cn1cc(C=O)c2ccccc21 = 94.6% (inactive)
2) COc1ccc(C2=CC(c3ccc(Oc4ccnc5cc(Cl)ccc45)c(OC)c3)c3c(nc(OC)[nH]c3=O)N2)cc1 (stereo not given) = 82.9% (inactive)
3) CC(=O)Nc1nc(C(=O)N2N=C(C)/C(=C/c3ccc(Cl)cc3)C2=O)cs1 = 100% (inactive)
4) COc1ccc(/C(=N/O)c2cc(OC)c(OC)c(OC)c2)c(OC)c1N = 23.9% (inactive)
5) O=P([O-])(O)OP(=O)([O-])O.[NH-][C@H]1CCCC[C@@H]1[NH-].[OH-].[OH-].[Pt+4] = 94.8% (inactive)

---

tested on: CAKI-1 renal; assay: NCI-60 one-dose screen, 48 h (100 = growth as untreated, 0 = no growth, -100 = all killed); conditions: 10 µM unless noted
About 83,000 compounds went through this panel and 20% of them were active in at least one assay; those are over-represented in the sample as a whole.
This section presents compounds with their documented growth values.
measure: growth (%)

1. CC(Br)C(OC(=O)c1ccccc1Cl)c1cc2c(cc1Br)OCO2 (stereo not drawn) = 70
2. CCN1C(=O)N(CC)C2Nn3c(s/c(=C\c4cccc(F)c4)c3=O)=NC21 (stereo not drawn) = 48.9
3. CCC1=C[C@@H]2CN(C1)Cc1c([nH]c3ccccc13)[C@@](C(=O)OC)(c1cc3c(cc1OC)N(C=O)[C@H]1[C@@](O)(C(=O)OC)[C@H](OC(C)=O)[C@]4(CC)[C@@H]5C[C@@H]5CN5CC[C@]31[C@@H]54)C2 = 8.29
4. COc1ccc(C(=O)c2cc(OC)c(OC)c(OC)c2)cc1/C=C/C(=O)c1ccc(O)cc1 = 24.8
5. Cc1ccc2nc(SCn3nnc4ccccc4c3=O)[nH]c2c1 = 93.5
6. O=C1CCC/C=C\C[C@H]2C=CC(=O)/C2=C/C[C@H](C/C=C\CC(F)(F)F)O1 = 16
7. O=S(=O)(NCCCNc1nccc(-c2c(-c3ccc(F)c(O)c3)nc3sccn23)n1)c1ccc(Cl)cc1 = 54.7
8. C[C@]12CC[C@@H]3c4cc(O)c(O)cc4CC[C@H]3[C@@H]1CC[C@@H]2O = 33.3
